Hello, the source for this data is PubChem BioAssay AID1159580, in case you need it.

Test: chemical genetic growth profiling, strain panel (AID 1159580);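 note: tested at 20 µM; growth read once vehicle control cultures reached saturation at 30 °C; 1 = growth at the plate median or of vehicle wells; lower values mean less growth of the strain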
Details: S. cerevisiae deletion strains, growth OD, locus YDL101C, strain DUN1, hits give low values
The whole screen tested about 5,500 compounds, of which about 2,000 (36%) were called active. About 18% were inconclusive and are not listed. The list shows a part of the results.
Measured normalized growth of individual entries
Write the number on its own, no unit after it.

Solved cases (6 shown):
- compound: "CC(CN(C)C)CN1c2ccccc2CCc2ccccc21 (stereo not given)"
  normalized growth: 1
- compound: "CCC(=O)c1ccc2c(c1)N(CC(C)N(C)C)c1ccccc1S2 (stereo not given)"
  normalized growth: 0.986
- compound: "Cc1ccc(S(=O)(=O)Nc2ccc(Oc3ccc(F)cc3)cc2)cc1"
  normalized growth: 0.982
- compound: "C[C@H](CCC(=O)O)[C@H]1CCC2C3C(CC[C@@]21C)[C@@]1(C)CC[C@@H](O)C[C@H]1C[C@@H]3O (stereo not given in full)"
  normalized growth: 0.986
- compound: "CCN(CC)C(C)CN1c2ccccc2Sc2ccccc21 (stereo not given)"
  normalized growth: 0.978
- compound: "NNC(=O)c1ccccc1O"
  normalized growth: 0.975

Challenge: For the compound CCCC(CCC)C(=O)O , what normalized growth is on record?
Response given: 1.01

Challenge: For the compound CC(CN(C)C)CN1c2ccccc2Sc2ccccc21 (stereo not given) , what normalized growth is on record?
Response given: 0.985
